biological target: human cholecystokinin-2 receptor (CCK-2R) (Homo sapiens, UniProt P32239); construct: host or cells: 1321-N1 cells (plasma membranes prepared by Evotec AG Hamburg); assay: In vitro receptor binding to CCK-2R, SPA displacement of [125I]-CCK-8s from plasma membranes; details: displacement of [125I]-CCK-8s, plasma membranes of 1321-N1 cells expressing CCK-2R; highest dose tested 1×10^7 pM; read-out: IC50 (CCK-2R)
Sequence (P32239 whole entry): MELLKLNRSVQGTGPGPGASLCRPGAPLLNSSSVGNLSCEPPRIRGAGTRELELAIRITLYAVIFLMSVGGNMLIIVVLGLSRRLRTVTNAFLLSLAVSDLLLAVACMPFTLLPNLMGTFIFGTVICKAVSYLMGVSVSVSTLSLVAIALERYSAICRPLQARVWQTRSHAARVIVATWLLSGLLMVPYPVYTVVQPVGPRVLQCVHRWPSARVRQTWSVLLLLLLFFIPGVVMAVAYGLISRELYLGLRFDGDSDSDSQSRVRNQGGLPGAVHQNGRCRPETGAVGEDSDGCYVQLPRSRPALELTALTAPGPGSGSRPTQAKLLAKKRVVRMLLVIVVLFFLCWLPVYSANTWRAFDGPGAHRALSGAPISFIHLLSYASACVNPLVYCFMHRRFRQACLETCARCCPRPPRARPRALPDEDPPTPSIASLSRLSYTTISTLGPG
Starred links: 1 amine or outer side, 2 acyl side, 3 side chain; linkers in the order of their positions; H or OH if unused. Non-standard residues stand in square brackets, D forms with d. Residues, ends and D or L forms follow the SMILES beside them. *: point of attachment. sY = N[C@@H](Cc1ccc(OS(=O)(=O)O)cc1)C(=O)O; C18 diacid = O=C(O)CCCCCCCCCCCCCCCCC(=O)*; γGlu = O=C(O)[C@H](CCC(=O)[*:2])N[*:1]; NMeF = CN[C@@H](Cc1ccccc1)C(=O)O; dNMeD = CN[C@H](CC(=O)O)C(=O)O; Nle = CCCC[C@H](N)C(=O)O; AEEA = NCCOCCOCC(=O)O
measured_metric: IC50

// worked examples, IC50 included
| compound | IC50 |
| --- | --- |
| CC(C)C[C@H](NC(=O)[C@H](Cc1ccc(OS(=O)(=O)O)cc1)NC(=O)[C@@H](N)CCC(=O)O)C(=O)NCC(=O)N[C@@H](Cc1c[nH]c2ccccc12)C(=O)N[C@@H](CCC(N)=O)C(=O)N(C)[C@H](CC(=O)O)C(=O)N(C)[C@@H](Cc1ccccc1)C(N)=O | > 10 µM |
| CC(C)C[C@H](NC(=O)[C@H](Cc1ccc(OS(=O)(=O)O)cc1)NC(=O)[C@H](CCC(=O)O)NC(=O)COCCOCCNC(=O)COCCOCCNC(=O)CC[C@H](NC(=O)CCCCCCCCCCCCCCCCC(=O)O)C(=O)O)C(=O)NCC(=O)N[C@@H](Cc1c[nH]c2ccccc12)C(=O)N[C@@H](CCC(N)=O)C(=O)N(C)[C@H](CC(=O)O)C(=O)N[C@@H](Cc1ccccc1)C(N)=O | > 10 µM |

Shift focus to the following entry.
// assay human cholecystokinin-2 receptor (CCK-2R) (Homo sapiens, UniProt P32239), entry CCCC[C@H](NC(=O)[C@H](Cc1c[nH]c2ccccc12)NC(=O)CNC(=O)[C@H](CCCNC(=N)N)NC(=O)[C@H](Cc1ccc(OS(=O)(=O)O)cc1)NC(=O)[C@H](CC(=O)O)NC(=O)COCCOCCNC(=O)COCCOCCNC(=O)CC[C@H](NC(=O)CCCCCCCCCCCCCCCCC(=O)O)C(=O)O)C(=O)N(C)[C@H](CC(=O)O)C(=O)N(C)[C@@H](Cc1ccccc1)C(N)=O [Example 17] ({C18 diacid-γGlu-AEEA-AEEA}-D[sY]RGW[Nle][dNMeD][NMeF]-NH2) , IC50 value = 0.88 µM
